Data provenance is patent US12084523B2.

Provide the recorded kon for the entries that follow.
biological target: ^K48Ub4 (Homo sapiens, UniProt P0CG47); construct: solid phase peptide synthesis of Ub monomers (modified as required); made in house; assay: SPR binding of cyclic peptides to K48-linked tetra-ubiquitin; conditions: SPR, target ^K48Ub4
State the value, then name its unit.

Please review the following examples before continuing.
CC(C)C[C@@H]1NC(=O)[C@H](CC(N)=O)NC(=O)[C@H](CC(=O)O)NC(=O)[C@H](Cc2ccccc2)NC(=O)[C@H](Cc2c[nH]c3ccccc23)NC(=O)CNC(=O)[C@@H](Cc2c[nH]c3ccccc23)NC(=O)CSC[C@@H](C(=O)NCC(N)=O)NC(=O)[C@H](Cc2c[nH]cn2)NC(=O)[C@H]([C@@H](C)O)NC(=O)[C@H](C(C)C)NC(=O)[C@H](Cc2ccc(O)cc2)NC(=O)[C@H](Cc2c[nH]c3ccccc23)NC(=O)[C@H](Cc2ccc(O)cc2)NC1=O :: 779000 M⁻¹ s⁻¹
CC[C@H](C)[C@@H]1NC(=O)[C@H](Cc2c[nH]c3ccccc23)NC(=O)[C@H](Cc2c[nH]c3ccccc23)NC(=O)[C@H](CC(=O)O)NC(=O)CNC(=O)[C@H](CO)NC(=O)[C@H](CC(=O)O)NC(=O)[C@H](CC(=O)O)NC(=O)[C@H](CC(C)C)NC(=O)[C@H](Cc2ccc(O)cc2)NC(=O)[C@H](CC(C)C)NC(=O)[C@@H](Cc2c[nH]c3ccccc23)NC(=O)CSC[C@@H](C(=O)NCC(N)=O)NC1=O :: 3.52e+06 M⁻¹ s⁻¹
CC(C)C[C@@H]1NC(=O)[C@H](CC(=O)O)NC(=O)[C@H](CC(=O)O)NC(=O)[C@H](Cc2ccccc2)NC(=O)[C@H](Cc2c[nH]c3ccccc23)NC(=O)CNC(=O)[C@@H](Cc2c[nH]c3ccccc23)NC(=O)CSC[C@@H](C(=O)NCC(N)=O)NC(=O)[C@H](Cc2ccc(O)cc2)NC(=O)[C@H](C)NC(=O)[C@H](C(C)C)NC(=O)[C@H](Cc2ccccc2)NC(=O)[C@H](CC(C)C)NC(=O)[C@H](Cc2ccc(O)cc2)NC1=O :: 407000 M⁻¹ s⁻¹

Quick check: kon of CC(C)C[C@@H]1NC(=O)[C@H](Cc2ccc(O)cc2)NC(=O)[C@H](Cc2ccc(O)cc2)NC(=O)[C@H](Cc2ccc(O)cc2)NC(=O)[C@H](CCC(=O)O)NC(=O)[C@H](CCCNC(=N)N)NC(=O)[C@H](CC(=O)O)NC(=O)[C@H](Cc2ccc(O)cc2)NC(=O)[C@H](Cc2c[nH]c3ccccc23)NC(=O)[C@@H](Cc2c[nH]c3ccccc23)NC(=O)CSC[C@@H](C(=O)NCC(N)=O)NC(=O)CNC(=O)[C@H](Cc2ccc(O)cc2)NC(=O)CNC1=O ?
877000 M⁻¹ s⁻¹
